These measurements were taken from patent US11491206.

tgt: T1, death receptor 5 (DR5) (UniProt O14763 56-182, limits assumed)
T1 construct: also called TRAIL Receptor 2; TRAILR2
assay summary: not stated (told in the legend of the schematic FIG. 1A)
readout kind: Kd
Give the number first and the unit second.

// lookup Kd for DRA monomer (single Tn3 type III fibronectin domain of tenascin engineered to bind death receptor 5) (designed binder, also called Tn3 monomer; monomer of the Tn3 domain) GAIEVKDVTDTTALITWAKPWVDPPPLWGCELTYGIKDVPGDRTTIDLQQKHTAYSIGNLKPDTEYEVSLICFDPYGMRSKPAKETFTT
43 nM
